Tested on: LOX IMVI
assay.overview: NCI tumour cell line growth inhibition, 48 h
Activity calls are given as the source filed them. Cut-off read from the data, not from the text of the source: active = GI50 up to about 1.1 µM and inactive = higher.
Respond only with the outcome that fits, drawn from active, inactive

Please state the recorded outcome for this compound: CC[C@@]1(O)C(=O)OCc2c1cc1n(c2=O)Cc2c-1nc1ccccc1c2/C=N\NC(=O)C(N)CO (stereo not given in full) active

Please state the recorded outcome for this compound: N#CC1(C#N)NC(c2ccccc2)C(C#N)(C#N)NC1c1ccccc1 (stereo not given) inactive

Please state the recorded outcome for this compound: C/C(=N/O)C1CC=C(S(=O)(=O)c2ccccc2)C1 (stereo not given) inactive

Please state the recorded outcome for this compound: COc1ccc(OC)c2c1ccc1c(C)c3ccccc3c(C)c12 inactive

Please state the recorded outcome for this compound: CC(C)(c1ccccc1)c1ccc(OC#N)cc1 inactive

Please state the recorded outcome for this compound: COc1cc(C)c(O)c(C(=O)O)c1 inactive

Please state the recorded outcome for this compound: CC1CCN(CC(=O)N2c3ccccc3Sc3cc4ccccc4cc32)CC1 inactive

Please state the recorded outcome for this compound: CC(=O)OCc1cc(=O)n(C)c2c3c4c(cc12)c(C)cc(=O)n4CO3 inactive

Please state the recorded outcome for this compound: Cc1ccc2c(ccc3[nH]cc(CNc4ccc(NS(C)(=O)=O)cc4)c32)n1 inactive

Please state the recorded outcome for this compound: FC(F)(F)C1(C(F)(F)F)OC(Cl)(Cl)C(Cl)(Cl)O1 inactive

Please state the recorded outcome for this compound: C[C@]1(CO)CCC[C@@]2(C)C1CC[C@H]1CC3C[C@]12CC[C@]3(C)O (stereo not given in full) inactive

Please state the recorded outcome for this compound: FC(F)(F)c1nc2nc(Cl)c(Cl)nc2n1CCCN1CCOCC1 inactive

Please state the recorded outcome for this compound: Cc1cc(NC(=O)C(=O)Cc2cnc3ccccc3n2)c(S(=O)(=O)O)cc1Cl inactive

Please state the recorded outcome for this compound: Cc1cc(C)nc(SC(C)C(=O)N/N=C/c2ccc(OCc3ccccc3)cc2)n1 (stereo not given) inactive

Please state the recorded outcome for this compound: CCCCCC/C=C\CCCCCCCCCc1c(O)c(OC)cc(O)c1CN(C)C inactive

Please state the recorded outcome for this compound: N[C@H]1CCCC[C@@H]1N1C(=O)c2ccccc2C1(O)c1ccc(Cl)cc1 (stereo not given in full) inactive

Please state the recorded outcome for this compound: C/C(=C\CCC1=CC(=O)OC1)CCC1C2C(=O)CC(C)[C@@]3(C)CC[C@]1(C)[C@@]23C (stereo not given in full) inactive

Please state the recorded outcome for this compound: O=C(NCCCN1CCN(CCCNC(=O)Nc2cc(Cl)ccc2Cl)CC1)Nc1cc(Cl)ccc1Cl inactive

Please state the recorded outcome for this compound: COc1cc2c[n+](C)c3c4cc(OC)c(OC)cc4c(OCCCCCCCCOc4cc5c6cc(OC)c(OC)cc6c[n+](C)c5c5cc(OC)c(OC)cc45)cc3c2cc1OC inactive

Please state the recorded outcome for this compound: Cc1ccc(C)c(N2C(=O)C(=O)C(c3nc4ccccc4o3)/C(=N\NC(=O)c3ccccc3O)C2=O)c1 (stereo not given) inactive

----------
System: HT-29
assay.overview: NCI tumour cell line growth inhibition, 48 h
The source made the active and inactive calls. Rule as the data show it: active = GI50 up to about 1.1 µM and inactive = higher.
Respond only with the outcome that fits, drawn from active, inactive

Please state the recorded outcome for this compound: COc1ccc(-c2cc3ccccc3oc2=O)cc1OC inactive

Please state the recorded outcome for this compound: O=C(Oc1ccc(OC(Oc2ccccc2)c2ccccc2)cc1)c1ccccc1 (stereo unspecified) inactive

Please state the recorded outcome for this compound: CCN(C(=O)/C=C/c1ccco1)c1ccccc1 inactive

Please state the recorded outcome for this compound: CCCCCC/C=C\CCCCCCCCCc1c(O)c(OC)cc(O)c1CN(C)C inactive

Please state the recorded outcome for this compound: Cn1c(Nc2ccccc2)c(/C=N\c2ccccc2)c(=O)n(C)c1=O inactive

Please state the recorded outcome for this compound: CCC(=O)NCCc1c2c3c(ccnc3c3ncsc13)-c1ccccc1N2 [KUANONIAMINE C] active
